So I've got a bunch of binders here, and I need their koff values.
- measured on: T1, human HGF (R&D material and Peprotech material, values averaged over both) (human, UniProt P14210 32-728)
- T1 construct: As printed they differ in one letter
- experiment notes: SPR (Biacore T100), summary table

INPUT: Quick one: koff of 9G6 (VHH, anti-HGF Nanobody clone; not shown: c-myc and His6 tags) VHH: EVQLVESGGGLVQAGGSLRLSCAASGRTLSDYTMGWFRQAPGKEREFVARINTGGPITSYSDSVKGRFTISRDNAKNTVYLQMNSLKPEDTAVYNCAARLPTKMSPRDYSSYAYRGQGTQVTVSS ?
OUTPUT: 0.001 s⁻¹

INPUT: Quick one: koff of 6G6 (VHH, anti-HGF Nanobody clone; not shown: c-myc and His6 tags) VHH: EVQLVESGGGLAQAGGSLRLSCAASGRSLSNYAMGWFRQAPGKEREIVCAISRSGSITTYADSVKGRFTIAKDNAANTVYLQMNSLKPEDTAAYYCAADPMYYGIPDQNWDYWGQGTQVTVSS ?
OUTPUT: 0.006 s⁻¹

INPUT: Quick one: koff of 6B2 (VHH, anti-HGF Nanobody clone; not shown: c-myc and His6 tags) VHH: EVQLVESGGGLVQAGGSLRLSCAASGRTFSSYAMGWFRQAPGKEREFVAAINWSGDSTYYADSVKGRFTISRDNAKNTVYLQMNSLKPEDTAVYYCAAGDVGRPDLYEYDYWGQGTQVTVSS ?
OUTPUT: ≤ 1e-05 s⁻¹

INPUT: Quick one: koff of 9H5 (VHH, anti-HGF Nanobody clone; not shown: c-myc and His6 tags) VHH: EVQLVESGGGLVQPGGSLRLSCAASGSIFNLNPMGWYRQAPGKQRELVATVTGEGRTNYSDSVKGRFTISRDNAKNTVYLQMNSLKPEDTAVYYCNAAFWAYDDAYWGQGTQVTVSS ?
OUTPUT: 0.001 s⁻¹
